tested on: KM-20L2; assay: NCI tumour cell line growth inhibition, 48 h
Active and inactive are the calls of the source. No stated cut-off is given here; in the data, active = GI50 up to about 1.1 µM and inactive = higher.
measurement label: GI50

// known answers, use as guide
[[record]]
compound = "CC(C)(c1ccc(C=O)o1)c1ccc(C(C)(C)c2ccc(C=O)o2)o1"
measurement_label = "GI50"
recorded_result = "> 100 µM (inactive)"

[[record]]
compound = "CC[P+](C)(C)CC"
measurement_label = "GI50"
recorded_result = "> 100 µM (inactive)"

[[record]]
compound = "CSc1nc(CO)c(CO)n1C"
measurement_label = "GI50"
recorded_result = "> 100 µM (inactive)"

[[record]]
compound = "O=C(Nc1ccc(Cl)cc1Cl)OC(Cn1cncn1)c1ccc(Cl)cc1Cl (stereo not given)"
measurement_label = "GI50"
recorded_result = "16.5 µM (inactive)"


# ---- query compound ----
query: Could you share which GI50 value was measured for CO[C@@H]1[C@H](OC(=O)NC(=O)CCl)CC[C@]2(CO2)[C@H]1[C@@]1(C)O[C@@H]1CC=C(C)C [O-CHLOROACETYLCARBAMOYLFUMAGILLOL] ?
result: 16.6 µM (inactive)
